Test system: GBS laboratory strains
Experiment: MBC90:MIC90 ratio method of determining antibiotic tolerance
Format: cell-based, Group B Streptococcus
Conditions: Streptococcus; for GBS; as stated under culture conditions
Protocol: The inventors ascertained the incidence of antibiotic tolerance in GBS clinical isolates collected from cervicovaginal-rectal swabs, by investigating cell wall inhibitors used to eliminate GBS colonization in pregnant women before delivery as stated by the CDC guidelines. […] The MBC:MIC ratio was calculated for laboratory strains using three β-lactam antibiotics (Penicillin G, Ampicillin, and Cefazolin) and a glycopeptide antibiotic (Vancomycin) (Table 1). […]
# MIC90 annotations
Quick reminder: number only, in µg/mL, skip the unit.

Worked examples follow.
>>> measured("CC1(C)S[C@@H]2[C@H](NC(=O)[C@H](N)c3ccccc3)C(=O)N2[C@H]1C(=O)O [Ampicillin]")
0.12
>>> measured("CC1(C)S[C@@H]2[C@H](NC(=O)Cc3ccccc3)C(=O)N2[C@H]1C(=O)O [Penicillin G]")
0.06
>>> measured("CN[C@H](CC(C)C)C(=O)N[C@H]1C(=O)N[C@@H](CC(N)=O)C(=O)N[C@H]2C(=O)N[C@H]3C(=O)N[C@H](C(=O)N[C@H](C(=O)O)c4cc(O)cc(O)c4-c4cc3ccc4O)[C@H](O)c3ccc(c(Cl)c3)Oc3cc2cc(c3O[C@@H]2O[C@H](CO)[C@@H](O)[C@H](O)[C@H]2O[C@H]2C[C@](C)(N)[C@H](O)[C@H](C)O2)Oc2ccc(cc2Cl)[C@H]1O [Vancomycin]")
2

I have this compound here, Cc1nnc(SCC2=C(C(=O)O)N3C(=O)[C@@H](NC(=O)Cn4cnnn4)[C@H]3SC2)s1 [Cefazolin] , and I need its recorded MIC90.
1

###

# MIC annotations
system: GBS laboratory strains; assay: MBC90:MIC90 ratio method of determining antibiotic tolerance; format: cell-based, Group B Streptococcus; conditions: Streptococcus, GBS strain NEM316; ≧90% growth-inhibited, OD600
Quick reminder: number only, in mg/L, skip the unit.

Worked examples follow.
>>> measured("CC1(C)S[C@@H]2[C@H](NC(=O)Cc3ccccc3)C(=O)N2[C@H]1C(=O)O")
0.06
>>> measured("CN[C@H](CC(C)C)C(=O)N[C@H]1C(=O)N[C@@H](CC(N)=O)C(=O)N[C@H]2C(=O)N[C@H]3C(=O)N[C@H](C(=O)N[C@H](C(=O)O)c4cc(O)cc(O)c4-c4cc3ccc4O)[C@H](O)c3ccc(c(Cl)c3)Oc3cc2cc(c3O[C@@H]2O[C@H](CO)[C@@H](O)[C@H](O)[C@H]2O[C@H]2C[C@](C)(N)[C@H](O)[C@H](C)O2)Oc2ccc(cc2Cl)[C@H]1O")
4
>>> measured("Cc1nnc(SCC2=C(C(=O)O)N3C(=O)[C@@H](NC(=O)Cn4cnnn4)[C@H]3SC2)s1")
0.19

Next item in the queue.
I have this compound here, `CC1(C)S[C@@H]2[C@H](NC(=O)[C@H](N)c3ccccc3)C(=O)N2[C@H]1C(=O)O` , and I need its recorded MIC.
0.48

###

system: GBS laboratory strains; test: MBC90:MIC90 ratio method of determining antibiotic tolerance; format: cell-based, Group B Streptococcus; conditions: GBS strain NEM316
MEASURED METRIC: Ratio (MBC90:MIC90)
Reply with just the number.

Worked examples follow.
>>> measured("Cc1nnc(SCC2=C(C(=O)O)N3C(=O)[C@@H](NC(=O)Cn4cnnn4)[C@H]3SC2)s1 [Cefazolin]")
16
>>> measured("CC1(C)S[C@@H]2[C@H](NC(=O)Cc3ccccc3)C(=O)N2[C@H]1C(=O)O [Penicillin G]")
8
>>> measured("CC1(C)S[C@@H]2[C@H](NC(=O)[C@H](N)c3ccccc3)C(=O)N2[C@H]1C(=O)O [Ampicillin]")
4

I have this compound here, CN[C@H](CC(C)C)C(=O)N[C@H]1C(=O)N[C@@H](CC(N)=O)C(=O)N[C@H]2C(=O)N[C@H]3C(=O)N[C@H](C(=O)N[C@H](C(=O)O)c4cc(O)cc(O)c4-c4cc3ccc4O)[C@H](O)c3ccc(c(Cl)c3)Oc3cc2cc(c3O[C@@H]2O[C@H](CO)[C@@H](O)[C@H](O)[C@H]2O[C@H]2C[C@](C)(N)[C@H](O)[C@H](C)O2)Oc2ccc(cc2Cl)[C@H]1O [Vancomycin] , and I need its recorded Ratio (MBC90:MIC90).
1

###

Tested on: GBS laboratory strains
Assay: MBC90:MIC90 ratio method of determining antibiotic tolerance
Assay type: cell-based, Group B Streptococcus
Details: Streptococcus, GBS strain O90R; ≧90% growth-inhibited, OD600
Description: The inventors ascertained the incidence of antibiotic tolerance in GBS clinical isolates collected from cervicovaginal-rectal swabs, by investigating cell wall inhibitors used to eliminate GBS colonization in pregnant women before delivery as stated by the CDC guidelines. […] The MBC:MIC ratio was calculated for laboratory strains using three β-lactam antibiotics (Penicillin G, Ampicillin, and Cefazolin) and a glycopeptide antibiotic (Vancomycin) (Table 1). […]
# MIC annotations
Quick reminder: number only, in µg/mL, skip the unit.

>>> measured("CN[C@H](CC(C)C)C(=O)N[C@H]1C(=O)N[C@@H](CC(N)=O)C(=O)N[C@H]2C(=O)N[C@H]3C(=O)N[C@H](C(=O)N[C@H](C(=O)O)c4cc(O)cc(O)c4-c4cc3ccc4O)[C@H](O)c3ccc(c(Cl)c3)Oc3cc2cc(c3O[C@@H]2O[C@H](CO)[C@@H](O)[C@H](O)[C@H]2O[C@H]2C[C@](C)(N)[C@H](O)[C@H](C)O2)Oc2ccc(cc2Cl)[C@H]1O")
4

I have this compound here, `Cc1nnc(SCC2=C(C(=O)O)N3C(=O)[C@@H](NC(=O)Cn4cnnn4)[C@H]3SC2)s1` , and I need its recorded MIC.
0.39

Field entry: `CC1(C)S[C@@H]2[C@H](NC(=O)[C@H](N)c3ccccc3)C(=O)N2[C@H]1C(=O)O`
0.96

Field entry: `CC1(C)S[C@@H]2[C@H](NC(=O)Cc3ccccc3)C(=O)N2[C@H]1C(=O)O`
0.12

###

System: GBS laboratory strains
Test: MBC90:MIC90 ratio method of determining antibiotic tolerance
Assay type: cell-based, Group B Streptococcus
Settings: Streptococcus, GBS strain 2603V/R; ≧90% growth-inhibited, OD600
Experimental: The inventors ascertained the incidence of antibiotic tolerance in GBS clinical isolates collected from cervicovaginal-rectal swabs, by investigating cell wall inhibitors used to eliminate GBS colonization in pregnant women before delivery as stated by the CDC guidelines. […] The MBC:MIC ratio was calculated for laboratory strains using three β-lactam antibiotics (Penicillin G, Ampicillin, and Cefazolin) and a glycopeptide antibiotic (Vancomycin) (Table 1). […]
MEASURED METRIC: MIC (µg/mL)
Quick reminder: number only, in µg/mL, skip the unit.

Worked examples follow.
>>> measured("CC1(C)S[C@@H]2[C@H](NC(=O)[C@H](N)c3ccccc3)C(=O)N2[C@H]1C(=O)O")
0.48
>>> measured("Cc1nnc(SCC2=C(C(=O)O)N3C(=O)[C@@H](NC(=O)Cn4cnnn4)[C@H]3SC2)s1")
0.19
>>> measured("CN[C@H](CC(C)C)C(=O)N[C@H]1C(=O)N[C@@H](CC(N)=O)C(=O)N[C@H]2C(=O)N[C@H]3C(=O)N[C@H](C(=O)N[C@H](C(=O)O)c4cc(O)cc(O)c4-c4cc3ccc4O)[C@H](O)c3ccc(c(Cl)c3)Oc3cc2cc(c3O[C@@H]2O[C@H](CO)[C@@H](O)[C@H](O)[C@H]2O[C@H]2C[C@](C)(N)[C@H](O)[C@H](C)O2)Oc2ccc(cc2Cl)[C@H]1O")
4

Next item in the queue.
I have this molecule here, `CC1(C)S[C@@H]2[C@H](NC(=O)Cc3ccccc3)C(=O)N2[C@H]1C(=O)O` , and I need its recorded MIC.
0.06
